test: Half life in Sprague-Dawley rat at 2.5 mg/kg, iv measured upto 24 hrs by LC-MS/MS analysis; assay type: ADME, organism-based; conditions: in vivo
RECORDED_ENDPOINT: half-life

COc1c(OCCCCCCC(=O)O)cc2oc3cc4c(c(O)c3c(=O)c2c1CC=C(C)C)C=CC(C)(C)O4 has a reported half-life of 257 min

* * *

assay: Tmax in Sprague-Dawley rat at 2.5 mg/kg, iv measured upto 24 hrs by LC-MS/MS analysis; format: ADME, organism-based; conditions: in vivo
RECORDED_ENDPOINT: Tmax (min)
Answers are plain numbers, in min.

COc1c(OCCCCCCC(=O)O)cc2oc3cc4c(c(O)c3c(=O)c2c1CC=C(C)C)C=CC(C)(C)O4 has a reported Tmax of 4.98

* * *

molecular target: UniProt Q14432
Sequence (Q14432 whole entry): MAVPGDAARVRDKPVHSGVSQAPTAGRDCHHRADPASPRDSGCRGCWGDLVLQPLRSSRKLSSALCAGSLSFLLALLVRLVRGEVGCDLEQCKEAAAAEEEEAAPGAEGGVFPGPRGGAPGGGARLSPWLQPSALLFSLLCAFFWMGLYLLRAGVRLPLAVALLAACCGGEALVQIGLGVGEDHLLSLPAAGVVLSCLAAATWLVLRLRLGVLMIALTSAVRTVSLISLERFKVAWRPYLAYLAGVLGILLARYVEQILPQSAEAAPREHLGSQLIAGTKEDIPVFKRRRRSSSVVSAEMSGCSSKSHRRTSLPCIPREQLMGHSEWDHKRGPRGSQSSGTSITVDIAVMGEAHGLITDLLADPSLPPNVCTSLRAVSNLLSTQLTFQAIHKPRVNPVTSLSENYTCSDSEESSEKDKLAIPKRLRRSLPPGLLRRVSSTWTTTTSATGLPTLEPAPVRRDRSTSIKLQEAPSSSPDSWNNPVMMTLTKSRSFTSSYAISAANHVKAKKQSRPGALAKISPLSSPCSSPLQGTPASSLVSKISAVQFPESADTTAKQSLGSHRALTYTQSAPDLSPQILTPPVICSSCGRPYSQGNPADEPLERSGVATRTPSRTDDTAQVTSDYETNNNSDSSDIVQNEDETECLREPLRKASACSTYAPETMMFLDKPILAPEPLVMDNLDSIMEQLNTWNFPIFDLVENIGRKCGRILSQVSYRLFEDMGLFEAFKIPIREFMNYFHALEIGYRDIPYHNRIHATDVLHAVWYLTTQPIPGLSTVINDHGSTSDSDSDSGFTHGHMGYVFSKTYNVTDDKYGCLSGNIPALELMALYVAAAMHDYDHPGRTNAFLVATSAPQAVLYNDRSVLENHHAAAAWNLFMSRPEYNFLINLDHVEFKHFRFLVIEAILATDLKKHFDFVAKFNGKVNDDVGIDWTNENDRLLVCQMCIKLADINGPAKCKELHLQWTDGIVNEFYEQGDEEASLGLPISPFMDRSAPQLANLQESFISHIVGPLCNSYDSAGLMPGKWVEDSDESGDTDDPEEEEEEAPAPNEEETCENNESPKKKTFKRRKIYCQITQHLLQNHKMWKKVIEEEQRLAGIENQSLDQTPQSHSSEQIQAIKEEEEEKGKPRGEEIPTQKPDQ
RECORDED_ENDPOINT: IC50

COc1c(OCCCCCCC(=O)O)cc2oc3cc4c(c(O)c3c(=O)c2c1CC=C(C)C)C=CC(C)(C)O4 has a reported IC50 of > 10 µM

* * *

biological target: UniProt O60658; assay: Inhibition of human PDE8A1 (480 to 820 residues) expressed in Escherichia coli BL21 codon-plus cells using [3H]cAMP as substrate incubated for 15 mins by liquid scintillation counting method
Sequence (O60658 whole entry, the tested form may be a part): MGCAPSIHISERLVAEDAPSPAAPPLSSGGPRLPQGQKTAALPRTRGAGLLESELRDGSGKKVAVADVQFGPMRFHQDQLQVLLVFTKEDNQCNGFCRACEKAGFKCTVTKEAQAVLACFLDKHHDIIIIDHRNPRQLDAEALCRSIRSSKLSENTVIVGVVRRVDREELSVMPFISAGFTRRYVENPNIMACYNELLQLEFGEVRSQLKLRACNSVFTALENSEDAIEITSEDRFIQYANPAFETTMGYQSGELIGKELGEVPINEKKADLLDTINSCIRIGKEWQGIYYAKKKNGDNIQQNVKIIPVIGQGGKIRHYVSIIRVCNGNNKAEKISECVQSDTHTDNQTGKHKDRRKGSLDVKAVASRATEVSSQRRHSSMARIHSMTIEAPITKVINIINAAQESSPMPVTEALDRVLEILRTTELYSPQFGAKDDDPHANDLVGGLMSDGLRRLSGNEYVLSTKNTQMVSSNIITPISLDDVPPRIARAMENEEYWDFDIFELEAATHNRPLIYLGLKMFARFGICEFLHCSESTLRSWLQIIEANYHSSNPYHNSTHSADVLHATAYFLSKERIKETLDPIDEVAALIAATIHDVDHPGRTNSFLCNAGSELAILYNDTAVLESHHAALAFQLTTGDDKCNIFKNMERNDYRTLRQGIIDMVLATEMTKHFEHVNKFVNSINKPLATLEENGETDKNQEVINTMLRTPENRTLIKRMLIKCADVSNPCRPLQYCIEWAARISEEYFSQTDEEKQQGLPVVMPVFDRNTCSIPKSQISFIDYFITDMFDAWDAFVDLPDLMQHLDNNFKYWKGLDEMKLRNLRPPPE
RECORDED_ENDPOINT: IC50

COc1c(OCCCCCCC(=O)O)cc2oc3cc4c(c(O)c3c(=O)c2c1CC=C(C)C)C=CC(C)(C)O4 has a reported IC50 of > 10 µM

* * *

target: Dual specificity calcium/calmodulin-dependent 3',5'-cyclic nucleotide phosphodiesterase 1B (Homo sapiens, UniProt Q01064); assay: Inhibition of human PDE1B (10 to 487 residues) expressed in Escherichia coli BL21 codon-plus cells using [3H]cAMP as substrate incubated for 15 mins by liquid scintillation counting method
Sequence (Q01064 whole entry, the tested form may be a part): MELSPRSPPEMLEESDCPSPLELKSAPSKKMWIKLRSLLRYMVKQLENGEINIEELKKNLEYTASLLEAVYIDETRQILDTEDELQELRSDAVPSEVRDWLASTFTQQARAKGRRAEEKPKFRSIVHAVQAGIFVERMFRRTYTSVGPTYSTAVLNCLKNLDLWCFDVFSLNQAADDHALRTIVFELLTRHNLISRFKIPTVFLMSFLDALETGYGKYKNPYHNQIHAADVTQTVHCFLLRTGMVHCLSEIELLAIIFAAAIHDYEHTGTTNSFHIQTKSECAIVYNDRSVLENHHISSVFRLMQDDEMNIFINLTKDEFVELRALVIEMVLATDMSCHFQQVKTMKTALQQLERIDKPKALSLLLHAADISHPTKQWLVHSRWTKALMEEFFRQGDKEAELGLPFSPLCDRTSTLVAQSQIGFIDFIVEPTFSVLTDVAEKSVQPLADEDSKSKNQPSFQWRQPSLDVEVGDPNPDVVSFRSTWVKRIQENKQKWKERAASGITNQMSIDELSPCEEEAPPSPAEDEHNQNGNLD
RECORDED_ENDPOINT: IC50

COc1c(OCCCCCCC(=O)O)cc2oc3cc4c(c(O)c3c(=O)c2c1CC=C(C)C)C=CC(C)(C)O4 has a reported IC50 of > 10 µM

* * *

assay: AUC(0 to t) in Sprague-Dawley rat at 2.5 mg/kg, iv measured upto 24 hrs by LC-MS/MS analysis; format: ADME, organism-based; set-up: dose 2.5 mg/kg, time < 24 hr, route intravenous; conditions: in vivo
RECORDED_ENDPOINT: AUC(0-t) at 24 h (ng·h/mL)
Give bare numbers, in ng·h/mL.

COc1c(OCCCCCCC(=O)O)cc2oc3cc4c(c(O)c3c(=O)c2c1CC=C(C)C)C=CC(C)(C)O4 has a reported AUC(0-t) at 24 h of 6670

* * *

experiment: Cmax in Sprague-Dawley rat at 2.5 mg/kg, iv measured upto 24 hrs by LC-MS/MS analysis; format: ADME, organism-based; design: dose 2.5 mg/kg, route intravenous; conditions: in vivo
RECORDED_ENDPOINT: Cmax (ng/mL)
One number for each entry, in ng/mL.

COc1c(OCCCCCCC(=O)O)cc2oc3cc4c(c(O)c3c(=O)c2c1CC=C(C)C)C=CC(C)(C)O4 has a reported Cmax of 14100

* * *

test: Protein binding in rat plasma at 1 uM by LC-MS/MS analysis; format: ADME, cell-free; conditions: read-out: PPB
RECORDED_ENDPOINT: fraction unbound at 1 µM

COc1c(OCCCCCCC(=O)O)cc2oc3cc4c(c(O)c3c(=O)c2c1CC=C(C)C)C=CC(C)(C)O4 has a reported fraction unbound at 1 µM of 0.01
